Numbers sourced from paper PMC7819943.

# target_entity: OsSMF1 (Oryza sativa, UniProt Q6ZLB0 1-436)
# Sequence: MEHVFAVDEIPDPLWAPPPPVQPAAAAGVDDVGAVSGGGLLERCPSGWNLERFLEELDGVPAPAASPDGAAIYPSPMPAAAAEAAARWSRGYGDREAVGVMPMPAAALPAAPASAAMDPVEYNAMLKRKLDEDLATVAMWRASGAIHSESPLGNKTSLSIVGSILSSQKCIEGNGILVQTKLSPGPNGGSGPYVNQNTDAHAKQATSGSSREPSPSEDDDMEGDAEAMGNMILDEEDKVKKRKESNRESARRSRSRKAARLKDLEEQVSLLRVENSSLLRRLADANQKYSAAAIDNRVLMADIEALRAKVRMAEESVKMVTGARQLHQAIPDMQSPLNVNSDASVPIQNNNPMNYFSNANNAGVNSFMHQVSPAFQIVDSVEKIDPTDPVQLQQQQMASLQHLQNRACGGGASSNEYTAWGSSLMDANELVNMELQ
# test: protein-binding microarray (RPBM); PBS, 2% BSA, 51.3 ng/ul salmon testes DNA, 50 uM zinc acetate, 200 nM TF, 25 C, 1 h; high values mean tight binding
# measurement_parameters: protein: recombinant; tags: N-terminal polyhistidine and DsRed monomer fusion (pET32a); chain copies: 2; label: CyDye5-dUTP incorporated in the synthesized complementary strand; 3' TTTTT single-stranded linker to array surface; dsDNA, one strand shown
Over roughly 39,000 sequences, “fluorescence intensity (a.u.)” has its median near 4,300; the highest 2% begin near 39,000. For the sample, the highest values were picked, then their nearest neighbours and some sequences at random.
binding signal: recorded values

residue_string: CAGGGGCATTTCCGTAAACTCCCACGTGGCACAGATACGGCGGAGTCACCTAGTGCAG
binding signal: 13200 fluorescence intensity (a.u.)

residue_string: GCATGTAGCTATGCAGCCATCCACGTCACTCCTTGCGTACCGGAGTCACCTAGTGCAG
binding signal: 31800 fluorescence intensity (a.u.)

residue_string: ATATATTGACAAGGCAATGACATAGATAGCTAGACATATCCGGAGTCACCTAGTGCAG
binding signal: 3190 fluorescence intensity (a.u.)

residue_string: TTGTACAGCAGCGTGCTTCCATATGAGGAAATCCACTTCTCGGAGTCACCTAGTGCAG
binding signal: 44200 fluorescence intensity (a.u.)

residue_string: GAAACCTGATGATGCTTGATGGAAATCCATTAGACAGCGTCGGAGTCACCTAGTGCAG
binding signal: 4580 fluorescence intensity (a.u.)
